- subject-of-test: T1, hCMV gH, gL, UL128, UL130 and UL131A co-expressed in HEK293T cells (human cytomegalovirus, UniProt P12824 24-743; P16832 31-278; P16837 1-171; P16772 1-214)
- T1 construct: whole, on cells; also called gH + gL + UL128 + UL130 + UL131A; gH/gL/UL128-130 complex
- experiment-summary: cell cross-competition, 20x excess; competitor 15D8-biotin

>  <binder>
10F7 (antibody, V domains shown, human IgG mAb; also called 10F7-biotin) VH: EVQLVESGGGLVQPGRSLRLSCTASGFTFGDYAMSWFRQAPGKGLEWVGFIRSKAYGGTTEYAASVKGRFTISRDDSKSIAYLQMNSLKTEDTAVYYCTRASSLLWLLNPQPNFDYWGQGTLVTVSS VL: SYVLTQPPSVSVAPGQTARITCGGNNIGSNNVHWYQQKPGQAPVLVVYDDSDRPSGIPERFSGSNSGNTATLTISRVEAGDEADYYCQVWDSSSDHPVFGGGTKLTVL

>  <Inhibition of binding (%)>
0%

$$$$
>  <binder>
4N10 (antibody, V domains shown, human IgG mAb; also called 4N10-biotin) VH: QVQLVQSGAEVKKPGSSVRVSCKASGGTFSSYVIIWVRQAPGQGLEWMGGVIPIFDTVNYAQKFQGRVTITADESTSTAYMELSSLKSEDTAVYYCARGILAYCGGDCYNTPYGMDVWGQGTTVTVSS VL: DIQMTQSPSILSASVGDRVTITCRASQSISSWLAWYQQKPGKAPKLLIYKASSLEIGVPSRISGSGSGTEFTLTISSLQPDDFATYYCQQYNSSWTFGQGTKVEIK

>  <Inhibition of binding (%)>
0%

$$$$
>  <binder>
2C12 (antibody, V domains shown, human IgG mAb; also called 2C12-biotin) VH: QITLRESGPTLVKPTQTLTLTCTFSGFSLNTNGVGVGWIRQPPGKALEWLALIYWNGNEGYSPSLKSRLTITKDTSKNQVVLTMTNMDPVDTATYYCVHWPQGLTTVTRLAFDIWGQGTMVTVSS VL: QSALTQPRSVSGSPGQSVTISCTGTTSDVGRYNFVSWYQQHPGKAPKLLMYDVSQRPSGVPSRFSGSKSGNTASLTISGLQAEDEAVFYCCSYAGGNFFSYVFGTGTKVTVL

>  <Inhibition of binding (%)>
0%

$$$$
>  <binder>
10P3 (antibody, V domains shown, human IgG mAb) VH: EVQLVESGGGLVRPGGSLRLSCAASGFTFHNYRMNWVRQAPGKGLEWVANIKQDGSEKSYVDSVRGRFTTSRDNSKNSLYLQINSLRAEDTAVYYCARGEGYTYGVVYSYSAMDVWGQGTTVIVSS VL: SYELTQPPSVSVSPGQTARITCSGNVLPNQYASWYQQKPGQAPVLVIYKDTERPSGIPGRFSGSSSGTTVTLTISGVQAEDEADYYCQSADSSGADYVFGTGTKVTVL

>  <Inhibition of binding (%)>
0%

$$$$
>  <binder>
15D8 (antibody, V domains shown, human IgG mAb; also called 15D8-biotin) VH: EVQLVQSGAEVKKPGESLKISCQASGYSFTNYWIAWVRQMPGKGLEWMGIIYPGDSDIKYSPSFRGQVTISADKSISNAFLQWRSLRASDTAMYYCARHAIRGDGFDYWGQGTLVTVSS VL: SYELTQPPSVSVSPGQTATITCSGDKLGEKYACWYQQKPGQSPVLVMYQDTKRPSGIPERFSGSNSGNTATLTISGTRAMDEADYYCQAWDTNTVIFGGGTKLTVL

>  <Inhibition of binding (%)>
100%

$$$$
